Origin of the recorded values: PubChem BioAssay (NCI)

Tested on: NCI-H322M lung
Test: NCI-60 one-dose screen, 48 h (100 = growth as untreated, 0 = no growth, -100 = all killed)
Conditions: 10 µM unless noted
About 83,000 compounds went through this panel and 20% of them were active in at least one assay; those are over-represented in the sample as a whole.
// values below are reported growth
// return numeric value only (unit: %, not printed)

compound	growth [%]
CC1(C)NCCC[C@]2(C)[C@H]3CC[C@@H]4[C@H]5[C@H](C(=O)/C=C/c6ccco6)CC[C@]5(CO)CC[C@@]4(C)[C@]3(C)CC[C@@H]12	92.6
O=C(c1nnc(Nc2ccccc2Br)o1)c1c[nH]c2ccccc12	94.6
O=S(=O)(NCCNc1nccc(-c2c(-c3cccc(O)c3)nc3occn23)n1)c1ccc(C(F)(F)F)cc1	108
O=C(NCCNc1nccc(-c2c(-c3cccc(F)c3)nc3sccn23)n1)c1ccc(Cl)cc1	66.3
COc1ccc(C(=O)c2cc(C)c(OC)c(C)c2)c(OC)c1N(C(=O)CCl)C(=O)CCl	36.2

Entry "O=C1Nc2cc(-c3cccc([N+](=O)[O-])c3)ccc2/C1=C/c1ccc[nH]1" , growth reported as 58.3

Entry "N#C/C(=C\c1ccc(Cl)cc1)n1nnc2cc(F)c(F)cc21" , growth reported as 33.9

Entry "O=[N+]([O-])c1ccc(NC(=S)N/N=C/c2cc3ccccc3n3nnnc23)cc1" , growth reported as 51.9

Entry COC(=O)C(OC(C)=O)C(OC(C)=O)c1ccc(OC)c(OC)c1 (centres undefined) , growth reported as 93.4

====

Tested on: ACHN renal
Test: NCI-60 one-dose screen, 48 h
Conditions: 10 µM unless noted
This is part of a sample that, as a whole, favours compounds with a hit. Of some 83,000 tested, about 20% had one in any assay. Activity calls are given as the source filed them. How the source made its calls: active means growth percent below 10; inactive means the rest.
Please answer using one outcome listed in TRUE (active), FALSE (inactive)

Recorded results for 3 compounds are shown here.
compound	label
COc1ccc(/C=C2\COc3ccc(-c4ccccc4)cc3C2=O)c(OC)c1	FALSE
CNCCn1c(=O)c2cc(OC)c(OC)cc2c2ccc3cc4c(cc3c21)OCO4	TRUE
O=C(/C(=C\c1ccc([N+](=O)[O-])cc1)S(=O)Cc1ccc(F)cc1)c1ccc(F)cc1 (stereo not drawn)	TRUE

Name the outcome recorded for "CCNc1nc2cc(Nc3ccnc4cc(Cl)ccc34)ccc2o1" in the assay. FALSE

Name the outcome recorded for "C[C@H]1[C@H]2[C@H]3CC[C@@H]4[C@@]5(C)CC[C@H](O)C(C)(C)[C@@H]5CC[C@@]4(C)[C@]3(C)CC[C@]23CO[C@]1(C)[C@@H](C(=O)/C=C\c1ccco1)C3" in the assay. FALSE

Name the outcome recorded for CC1(C)CC(O)CCCCCCOc2c(CN)cccc2NC(=O)c2nc(cnc2N)-c2ccc(cc2)S1(=O)=O (stereo not drawn) in the assay. FALSE

Name the outcome recorded for "CCCCCCNC(=O)Oc1ccc(/C(=C(\C)c2ccccc2)c2ccc(OCCCN(C)C)cc2)cc1" in the assay. FALSE

Name the outcome recorded for "CCOC(=O)c1cc(C(=O)c2ccc(OC)c(OC)c2)n2c1ccc1ccccc12" in the assay. FALSE

Name the outcome recorded for "O=S(=O)(NCCCNc1nccc(-c2c(-c3cccc(F)c3)nc3sccn23)n1)c1cccc2ccccc12" in the assay. FALSE

Name the outcome recorded for "O=[N+]([O-])c1ccc(N=Nc2cc(S(=O)(=O)O)c3cccc(S(=O)(=O)O)c3c2O)cc1" in the assay. FALSE

Name the outcome recorded for "O=C1c2cccc3c(-c4ccc5c(c4)ncn5C4CCCCC4)ccc(c23)C(=O)N1c1nc2ccccc2s1" in the assay. FALSE

Name the outcome recorded for "COc1ccc(/C=C/C(=O)Nc2cc(/C=C\c3cc(OC)c(OC)c(OC)c3)cc(OC)c2OC)cc1OC" in the assay. FALSE

Name the outcome recorded for COc1cc(/C=N/NC(=O)c2cnn3c2NC(c2ccccc2)C3)ccc1OCc1ccccc1 (stereo not drawn) in the assay. FALSE

Name the outcome recorded for COc1ccc2c(c1)C(=O)CC(c1ccccc1OC)O2 (stereo not drawn) in the assay. FALSE

Name the outcome recorded for "CC(=O)Nc1ccc(-n2cnc3cc(-c4ccc(OCCN5CCCCC5)cc4)ccc32)cc1" in the assay. FALSE

Name the outcome recorded for "CCCCCCCCOc1ccc(/C=N/Nc2cc(C)nc3ccc(Br)cc23)cc1" in the assay. FALSE

Name the outcome recorded for "Cc1cnc(C(=O)Nc2nc3ccc(S(=O)(=O)Nc4ccc(C(C)(C)C)cc4)cc3[nH]2)cn1" in the assay. FALSE

Name the outcome recorded for "COc1cc2cc(CN3CCN(c4nccc(-c5ccc6ccccc6c5)n4)CC3)c(=O)[nH]c2cc1OC" in the assay. FALSE

====

Tested on: ACHN renal
Experiment: NCI-60 one-dose screen, 48 h (100 = growth as untreated, 0 = no growth, -100 = all killed)
Conditions: 10 µM unless noted
This is part of a sample that, as a whole, favours compounds with a hit. Of some 83,000 tested, about 20% had one in any assay.
// values below are reported growth
// return numeric value only (unit: %, not printed)

molecule	unit	growth
COc1cc(-c2n/c(=C\c3c(O)[nH]c4ccc(Cl)cc34)cc3c2=Nc2ccccc2-3)ccc1F	%	-41.8
NS(=O)(=O)c1ccc(CCN2C(=O)C3C(C2=O)C2(Cl)C(Cl)=C(Cl)C3(Cl)C2(Cl)Cl)cc1 (centres undefined)	%	111
Cc1c2cc[nH]c(=O)c2c(C)c2c1[nH]c1cc(OCCN3CCN(C)CC3)ccc12	%	-17.5
C#CCNC(=O)[C@]1(C)CC[C@]2(C)CC[C@@H]3C(=CC[C@H]4[C@@]3(C)CC[C@H]3C(C)(C)C(=O)CC[C@]43C)[C@@H]2C1	%	98
C=C1C(=O)O[C@H]2[C@H]1CC/C(CNS(=O)(=O)c1cccc3ccccc13)=C\CC[C@@]1(C)O[C@@H]21	%	3.67

Entry "Cc1nnc2c(Cc3ccccc3)nc3ccccc3n12" , growth reported as 100

====

Test system: NCI/ADR-RES ovarian
Assay: NCI-60 one-dose screen, 48 h (100 = growth as untreated, 0 = no growth, -100 = all killed)
Settings: 10 µM unless noted
This is part of a sample that, as a whole, favours compounds with a hit. Of some 83,000 tested, about 20% had one in any assay.
outcomeMeasure: growth (%)
// return numeric value only (unit: %, not printed)

molecule	subjectOfTest	reportedResult
Cc1cc2nc3c4cc(C=O)ccc4n(CCN(C)C)c3nc2cc1C	NCI/ADR-RES ovarian	18.5
COC(=O)CNC(=O)[C@]12CCC(C)(C)C[C@H]1C1=CC[C@@H]3[C@@]4(C)Cc5c([nH]c6ccccc56)C(C)(C)[C@@H]4CC[C@@]3(C)[C@]1(C)CC2	NCI/ADR-RES ovarian	89.6
Cc1c(C)c([N+](=O)[O-])c(C)c([N+](=O)[O-])c1C	NCI/ADR-RES ovarian	108
Cn1ccnc1C(=O)/C=C/c1ccc(CC(=O)NC2CCCCC2)cc1	NCI/ADR-RES ovarian	75.9

Let me check: "CC1(C)c2[nH]c3ccccc3c2C[C@]2(C)[C@H]3C(=O)C=C4[C@@H]5C[C@@](C)(C(N)=O)CC[C@]5(C)CC[C@@]4(C)[C@]3(C)CC[C@@H]12" , system NCI/ADR-RES ovarian, measured growth is 71.2

Let me check: "COc1cc(OC)cc(C(=O)C[n+]2cccc3cc[nH]c32)c1" , system NCI/ADR-RES ovarian, measured growth is 101

Let me check: "C=C(CBr)[C@@H]1CC[C@]2(COC(C)=O)CC[C@]3(C)[C@H](CC[C@@H]4[C@@]5(C)CCCNC(C)(C)[C@@H]5CC[C@]43C)[C@@H]12" , system NCI/ADR-RES ovarian, measured growth is 48.9

Let me check: "c1ccc(-c2c(-c3ccccc3)[n+](Cc3ccc4ccccc4c3)c(-c3cccc4ccccc34)n2Cc2ccc3ccccc3c2)cc1" , system NCI/ADR-RES ovarian, measured growth is -18.9

Let me check: "O=C1c2ccc3c4c(ccc(c24)C(=O)N1CCCNCc1ccccc1Cl)C(=O)N(CCCNCc1ccccc1Cl)C3=O" , system NCI/ADR-RES ovarian, measured growth is -12.3

Let me check: "Nc1n[nH]c2cccc(C#Cc3cccc(C(=O)Nc4cc(CN5CCOCC5)cc(C(F)(F)F)c4)c3)c12" , system NCI/ADR-RES ovarian, measured growth is 42.1

Let me check: "CN1CCN(C(=O)[C@]23CCC(C)(C)C[C@H]2C2=CC[C@@H]4[C@@]5(C)C/C(=C/c6ccncc6)C(=O)C(C)(C)[C@@H]5CC[C@@]4(C)[C@]2(C)CC3)CC1" , system NCI/ADR-RES ovarian, measured growth is 56.3

Let me check: "COc1cc(F)c(/C=C/c2cc(/C=C/c3cc(OC)c(OC)cc3F)on2)cc1OC" , system NCI/ADR-RES ovarian, measured growth is 89.3

Let me check: "Cc1ccc(CNc2c3ccccc3nc3cc(NC(=O)CCN4CCCC4)ccc23)cc1" , system NCI/ADR-RES ovarian, measured growth is 63.1

Let me check: "COc1cc2oc(-c3cccc(C(=O)Nc4ccc5c(c4)OCO5)c3)cc(=O)c2c(O)c1OC" , system NCI/ADR-RES ovarian, measured growth is 70.6

Let me check: "CNC(=O)c1cc(Cn2nc(C)c(NC(=O)Nc3ccc(Cl)c(C(F)(F)F)c3)c2C)ccn1" , system NCI/ADR-RES ovarian, measured growth is 98.8

Let me check: "O=C1c2cccc3c(-c4ccc5c(c4)ncn5C4CCCCC4)ccc(c23)C(=O)N1c1nc2ccccc2s1" , system NCI/ADR-RES ovarian, measured growth is 91.3
